B1: Mineralocorticoid receptor, residues 600 to 675; numbered along this chain, P08235 (parent)
chain: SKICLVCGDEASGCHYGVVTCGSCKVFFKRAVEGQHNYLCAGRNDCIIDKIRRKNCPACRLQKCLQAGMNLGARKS

Variants of: B1
Assay: abundance fitness (aPCA) (normalised: wild type 0, dead -1); higher = more abundant; growth selection in yeast, the domain comes from the species named
Conditions: Homo sapiens
Reported abundance fitness values for a set of variants
A bare number is all that is needed in reply.

// below: answered variants
| POLYMER_SEQUENCE | RESULT_VALUE |
| --- | --- |
| LKICLVCGDEASGCHYGVVTCGSCKVFFKRAVEGQHNYLCAGRNDCIIDKIRRKNCPACRLQKCLQAGMNLGARKS [S1L] | -0.099 |
| SKICLVCGDEASGCHYWVVTCGSCKVFFKRAVEGQHNYLCAGRNDCIIDKIRRKNCPACRLQKCLQAGMNLGARKS [G17W] | -0.169 |
| SKICLVCGDEASGCHYGVVTCGSCKVFFKRAVEGQHNYLCAGRNDCIIDKIRMKNCPACRLQKCLQAGMNLGARKS [R53M] | -0.167 |
| SKICLVCGDEASGCHYGVVTCLSCKVFFKRAVEGQHNYLCAGRNDCIIDKIRRKNCPACRLQKCLQAGMNLGARKS [G22L] | -0.094 |
| SKICLVCGDEASGCHYGVVTCGSCKVFFKRAVEGQHNYLCAGRNDCIIDKIRRKNCPACRLQECLQAGMNLGARKS [K63E] | -0.16 |

Reported abundance fitness for SKICLVCGDEASGCHYGVVTCGSCKVFFKRAVEGQHNYLCAGRNDCIIDKIRRKNCPACRLQKCLQAGMNLFARKS [G72F] was -0.134

In plain terms, SKICLVCGDEASGCRYGVVTCGSCKVFFKRAVEGQHNYLCAGRNDCIIDKIRRKNCPACRLQKCLQAGMNLGARKS [H15R] has a documented abundance fitness of -0.136

Briefly, abundance fitness measured for SKICLVCGDEASGCHYGVVTCGSCKVFFKRAVEGQHNYLCAGRNDCIIDKIRRKNCPACRLQYCLQAGMNLGARKS [K63Y] : -0.137

So, SKICLVCGDEASGCHYGVVTCGSCKVFFKRAVEGQHNYLCKGRNDCIIDKIRRKNCPACRLQKCLQAGMNLGARKS [A41K] ? Its abundance fitness was -0.149

abundance fitness recorded for this variant, SKICLVCGDEASGCHYGVVTCGSCKVFFKRAVEGQHNYLCAGRNDCIIDKLRRKNCPACRLQKCLQAGMNLGARKS [I51L] , is 0.018

Briefly, abundance fitness measured for SKICLVCGDEASGCHYGVVTTGSCKVFFKRAVEGQHNYLCAGRNDCIIDKIRRKNCPACRLQKCLQAGMNLGARKS [C21T] : -1.22

Briefly, abundance fitness measured for SKICLVCGDEASGCHYGVVTCGSCKVFFKRAVEGQHNYLCAGRNDCIIDKIRRKNCPACRLQKCLQAVMNLGARKS [G68V] : -0.518

Notebook: SKICLVCGDEASGCHYGVVTCGSCKVFFKRAVEGQHNYLCAGRYDCIIDKIRRKNCPACRLQKCLQAGMNLGARKS [N44Y] , abundance fitness read as -0.049
